Kd values by entry
# SYSTEM: T1, extracellular domain of activin receptor type IIB (ActRIIBecd), biotinylated (Homo sapiens (Human), UniProt Q13705 27-117, amino-biotinylated with amine-PEG3-Biotin)
# T1 construct: immobilised on a streptavidin-coated sensor chip; also called biotinylated ActRIIBecd; extracellular domain of ActRIIB
# T1 sequence: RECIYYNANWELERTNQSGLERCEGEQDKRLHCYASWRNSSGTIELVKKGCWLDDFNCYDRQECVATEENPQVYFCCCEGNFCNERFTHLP
# ASSAY INFO: Mean KD column of Table 5; method not restated (BIAcore as Example 5); species also listed in Table 4
Bridges are numbered along the chain shown (N, C = ends).
ENDPOINT NAME: Kd

binder="SEQ ID NO: 230, cysteine pairs C27-C65^a (designed binder, disulfides C27-C65 (intra)) VDFKDVGWNDHAVAPPGYHAFYCHGECPFPLADHLNSDNHAIVQTKVNSVGQAKRKGYKRLKSSCKRHPLY" endpoint_name=Kd data_value="52.2 nM"
binder="SEQ ID NO: 242, cysteine pairs C15-C15^b, C29-C64^a, C30-C62^a (designed binder, disulfide 29-64, 30-62; also: homodimer via intermolecular C15-C15 disulfide, homodimer by intermolecular disulfide) GQAKRKGYKRLKSSCKRHPLYNSKDPKACCVPTELSAPSPLYLDENEKPVLKNYQDMVVHGCGCR" endpoint_name=Kd data_value="18.1 nM"
binder="SEQ ID NO: 292, cysteine pairs C15-C80^a, C44-C112^a, C48-C114^a, C79-C79^b (designed binder, disulfides C15-C80 (intra), C44-C112 (intra), C48-C114 (intra), C79-C79 (inter), homodimer by intermolecular disulfide) GQAKRKGYKRLKSSCKRHPLYVDFKDVGWNDHAVAPPGYHAFYCHGECPFPLADHLNSDNHAIVQTKVNSVNSKDPKACCVPTELSAPSPLYLDENEKPVLKNYQDMVVHGCGCR" endpoint_name=Kd data_value="4.77 nM"
binder="SEQ ID NO: 292, cysteine pairs C79-C80^a (designed binder, disulfides C79-C80 (intra)) GQAKRKGYKRLKSSCKRHPLYVDFKDVGWNDHAVAPPGYHAFYCHGECPFPLADHLNSDNHAIVQTKVNSVNSKDPKACCVPTELSAPSPLYLDENEKPVLKNYQDMVVHGCGCR" endpoint_name=Kd data_value="29 nM"
binder="SEQ ID NO: 308, cysteine pairs C59-C59^b, C8-C41^b, C9-C43^b, C88-C92^a (designed binder, disulfides C59-C59 (inter), C8-C41 (inter), C9-C43 (inter), C88-C92 (intra), homodimer by intermolecular disulfide) NSKDPKACCVPTELSAPSPLYLDENEKPVLKNYQDMVVHGCGCRGQAKRKGYKRLKSSCKRHPLYVDFKDVGWNDHAVAPPGYHAFYCHGECPFPLADHLNSDNHAIVQTKVNSV" endpoint_name=Kd data_value="6.73 nM"
binder="SEQ ID NO: 236, cysteine pairs C59-C59^b, C8-C41^a, C9-C43^a (designed binder, disulfide 8-41, 9-43; also: homodimer via intermolecular C59-C59 disulfide, homodimer by intermolecular disulfide) NSKDPKACCVPTELSAPSPLYLDENEKPVLKNYQDMVVHGCGCRGQAKRKGYKRLKSSCKRHPLY" endpoint_name=Kd data_value="16.2 nM"
binder="SEQ ID NO: 218, cysteine pairs C15-C15^b, C29-C62^a, C30-C64^a (designed binder, disulfide 29-62, 30-64; also: homodimer via intermolecular C15-C15 disulfide, homodimer by intermolecular disulfide) AQAKHKQRKRLKSSCKRHPLYNSKIPKACCVPTELSAISMLYLDENEKVVLKNYQDMVVEGCGCR" endpoint_name=Kd data_value="16.2 nM"
binder="SEQ ID NO: 260, cysteine pairs C15-C80^a, C44-C112^a, C48-C114^a, C79-C79^b (designed binder, disulfides C15-C80 (intra), C44-C112 (intra), C48-C114 (intra), C79-C79 (inter), homodimer by intermolecular disulfide) AQAKHKQRKRLKSSCKRHPLYVDFSDVGWNDWIVAPPGYHAFYCHGECPFPLADHLNSTNHAIVQTLVNSVNSKIPKACCVPTELSAISMLYLDENEKVVLKNYQDMVVEGCGCR" endpoint_name=Kd data_value="6.56 nM"
binder="SEQ ID NO: 188, cysteine pairs C15-C44^a (designed binder, disulfides C15-C44 (intra)) AQAKHKQRKRLKSSCKRHPLYVDFSDVGWNDWIVAPPGYHAFYCHGECPFPLADHLNSTNHAIVQTLVNSV" endpoint_name=Kd data_value="42.3 nM"
binder="SEQ ID NO: 206, cysteine pairs C67-C71^a, C8-C43^a, C9-C41^a (designed binder, disulfides C67-C71 (intra), C8-C43 (intra), C9-C41 (intra)) NSKIPKACCVPTELSAISMLYLDENEKVVLKNYQDMVVEGCGCRVDFSDVGWNDWIVAPPGYHAFYCHGECPFPLADHLNSTNHAIVQTLVNSV" endpoint_name=Kd data_value="17.7 nM"
binder="SEQ ID NO: 254, cysteine pairs C23-C27^a, C58-C91^b, C59-C93^b (designed binder, disulfides C23-C27 (intra), C58-C91 (inter), C59-C93 (inter), homodimer by intermolecular disulfide) VDFKDVGWNDHAVAPPGYHAFYCHGECPFPLADHLNSDNHAIVQTKVNSVNSKDPKACCVPTELSAPSPLYLDENEKPVLKNYQDMVVHGCGCR" endpoint_name=Kd data_value="18.7 nM"
binder="SEQ ID NO: 332, cysteine pairs C15-C15^b, C80-C112^a, C79-C114^a, C44-C48^a (designed binder, disulfides C15-C15 (inter), C80-C112 (intra), C79-C114 (intra), C44-C48 (intra), homodimer by intermolecular disulfide) GQAKRKGYKRLKSSCKRHPLYVDFSDVGWNDWIVAPPGYHAFYCHGECPFPLADHLNSTNHAIVQTLVNSVNSKDPKACCVPTELSAPSPLYLDENEKPVLKNYQDMVVHGCGCR" endpoint_name=Kd data_value="7.18 nM"
binder="SEQ ID NO: 292, cysteine pairs C80-C114^b, C79-C112^b, C44-C48^a (designed binder, disulfides C80-C114 (inter), C79-C112 (inter), C44-C48 (intra), homodimer by intermolecular disulfide) GQAKRKGYKRLKSSCKRHPLYVDFKDVGWNDHAVAPPGYHAFYCHGECPFPLADHLNSDNHAIVQTKVNSVNSKDPKACCVPTELSAPSPLYLDENEKPVLKNYQDMVVHGCGCR" endpoint_name=Kd data_value="5.54 nM"
binder="SEQ ID NO: 200, cysteine pairs C23-C58^a (designed binder, disulfides C23-C58 (intra)) VDFSDVGWNDWIVAPPGYHAFYCHGECPFPLADHLNSTNHAIVQTLVNSVNSKIPKACCVPTELSAISMLYLDENEKVVLKNYQDMVVEGCGCR" endpoint_name=Kd data_value="47.6 nM"
binder="SEQ ID NO: 308, cysteine pairs C8-C9^a (designed binder, disulfides C8-C9 (intra)) NSKDPKACCVPTELSAPSPLYLDENEKPVLKNYQDMVVHGCGCRGQAKRKGYKRLKSSCKRHPLYVDFKDVGWNDHAVAPPGYHAFYCHGECPFPLADHLNSDNHAIVQTKVNSV" endpoint_name=Kd data_value="31.2 nM"
binder="SEQ ID NO: 340, cysteine pairs C15-C15^b, C29-C64^b, C30-C62^b, C88-C92^a (designed binder, disulfides C15-C15 (inter), C29-C64 (inter), C30-C62 (inter), C88-C92 (intra), homodimer by intermolecular disulfide) AQAKHKQRKRLKSSCKRHPLYNSKDPKACCVPTELSAPSPLYLDENEKPVLKNYQDMVVHGCGCRVDFKDVGWNDHAVAPPGYHAFYCHGECPFPLADHLNSDNHAIVQTKVNSV" endpoint_name=Kd data_value="6.37 nM"
